- assay.explanation: Half life in human liver microsomes at 1 uM by LC-MS/MS analysis
Task for the reader: assign each of the following molecules its reported half-life at 1 µM.

Please give the measured half-life at 1 µM for this molecule: C[C@]12CCNC(=O)C=C1C1(CC1)C[C@@H]1[C@@H]2CC[C@]2(C)C(c3cccnc3)=CC[C@@H]12 1 to 50 min

Next entry: CC(=O)N[C@@H]1CC[C@@]2(C)C(=CC[C@@H]3[C@@H]2CC[C@]2(C)C(c4cncc(C(F)F)c4)=CC[C@@H]32)C1 1 to 50 min

Note, next up: C=C1C[C@@H]2[C@H](CC[C@]3(C)C(c4cccnc4)=CC[C@@H]23)[C@@]2(C)CCC(=O)C=C12 1 to 50 min

Try this molecule next: C[C@]12CC[C@H](O)CC1=CC[C@@H]1[C@@H]2CC[C@]2(C)C(c3cncc(C(F)F)c3)=CC[C@@H]12 ≥ 50 min

Same question for C[C@]12CC[C@H]3[C@@H](CC[C@H]4CC(=O)NCC[C@@]43C)C1=CC=C2c1cccnc1 please. 1 to 50 min

Field entry: CCNC(=O)N[C@@H]1CC[C@@]2(C)C(=CC[C@@H]3[C@@H]2CC[C@]2(C)C(n4ccnc4)=CC[C@@H]32)C1 1 to 50 min

C[C@]12CCC(=O)CCC1=CC[C@@H]1[C@@H]2CC[C@]2(C)C(n3ccnc3)=CC[C@@H]12 , same question. 1 to 50 min

Okay, and CC1(C)C2=CC[C@H]3C4=CC=C(c5cccnc5)[C@@]4(C)CC[C@@H]3[C@@]2(C)CCC1O (some centres not stated) ? 1 to 50 min

Entry C[C@]12CC[C@@H](NC(=O)C3CC3)CC1CC[C@H]1C3CC=C(c4cccnc4)[C@@]3(C)CC[C@@H]12 (single isomer, unassigned) please 1 to 50 min

Also C[C@]1(O)CC[C@@]2(C)C(CC[C@H]3C4=CC=C(c5cccnc5)[C@@]4(C)CC[C@@H]32)C1 (some centres not stated) ? 1 to 50 min

Okay, and C[C@]12CCNC(=O)C=C1CC[C@@H]1[C@@H]2CC[C@]2(C)C(n3cncn3)=CC[C@@H]12 ? 1 to 10 min

Please answer likewise for C[C@]12CCCCC1=CC[C@@H]1[C@@H]2CC[C@]2(C)C(c3cccnc3)=CC[C@@H]12 1 to 10 min

Same question for C[C@]12CCC(=O)C=C1C=C[C@@H]1[C@@H]2CC[C@]2(C)C(c3cncc(F)c3)=CC[C@@H]12 please. 1 to 50 min

Moving on to C[C@]12CCOCC[C@@H]1CC[C@@H]1[C@@H]2CC[C@]2(C)C(c3cccnc3)=CC[C@@H]12 1 to 10 min

Likewise for C[C@]12CCC(=O)C=C1C1CC1[C@@H]1[C@@H]2CC[C@]2(C)C(c3cccnc3)=CC[C@@H]12 (some centres not stated) ? 1 to 50 min

Cool, now C[C@]12CC(O)C[C@@H]1CC[C@@H]1[C@@H]2CC[C@]2(C)C(n3ccnc3)=CC[C@@H]12 (some centres not stated) 10 to 60 min

Next up: CC(=O)N[C@@H]1CC[C@@]2(C)C(=CC[C@@H]3[C@@H]2CC[C@]2(C)C(n4ccnc4)=CC[C@@H]32)C1 ≥ 50 min

Field entry: C[C@]12CC[C@H](O)CC1=CC[C@@H]1[C@@H]2CC[C@]2(C)C(c3ccc(F)nc3)=CC[C@@H]12 1 to 50 min

Then C[C@]12CC[C@@H](NC(=O)C3CC3)CC1=CC[C@@H]1[C@@H]2CC[C@]2(C)C(n3ccnc3)=CC[C@@H]12 ? 1 to 50 min

Same thing, different molecule: CN1CC[C@@]2(C)C(=CC1=O)CC[C@H]1C3=CC=C(n4ccnc4)[C@@]3(C)CC[C@@H]12 ≥ 50 min

Another molecule to check: Cc1cncc(C2=CC[C@H]3[C@@H]4CCN5C(=O)CCCC[C@]5(C)[C@H]4CC[C@]23C)c1 1 to 10 min

Would you kindly repeat that for CO/N=C1/C=C2CC[C@H]3C4=CC=C(c5cccnc5)[C@@]4(C)CC[C@@H]3[C@@]2(C)CC1 ? ≥ 50 min
